- ASSAY: suppressors of polyglutamine aggregation in yeast, 75Q-TubH (AID 1616)
- PARTICULARS: S. cerevisiae 75Q-TubH polyglutamine aggregation suppression; stronger effect = higher value
What aggregation suppression score was measured for each of the following?
Numbers only.

Consider the worked cases shown below.
COMPOUND: CC[C@H]1OC(=O)[C@H](C)[C@@H](O[C@H]2C[C@@](C)(OC)[C@@H](O)[C@H](C)O2)[C@H](C)[C@@H](O[C@@H]2O[C@H](C)C[C@H](N(C)C)[C@H]2O)[C@](C)(O)C[C@@H](C)CN(C)[C@H](C)[C@@H](O)[C@]1(C)O
aggregation suppression score: 0.581
--
COMPOUND: CC1(C)C2CC[C@]3(C)C(C(=O)C=C4[C@@H]5C[C@@](C)(C(=O)O)CC[C@]5(C)CC[C@]43C)[C@@]2(C)CC[C@@H]1O (stereo partly specified)
aggregation suppression score: 1.4
--
COMPOUND: O=C(O)C1CCCNC1 (stereo unspecified)
aggregation suppression score: 1.59

Below are some compounds; for each one, tell me its aggregation suppression score.
1. CN[C@@H]1[C@H](OC2[C@H](O[C@H]3[C@H](O)[C@@H](O)[C@H](N=C(N)N)[C@@H](O)[C@@H]3N=C(N)N)O[C@@H](C)[C@]2(O)C=O)O[C@@H](CO)[C@H](O)[C@H]1O (stereo partly specified)
2. C=C1CC[C@H](O)C/C1=C/C=C1\CCC[C@]2(C)C([C@H](C)/C=C/[C@H](C)C(C)C)CC[C@@H]12 (stereo partly specified)
3. CC[C@H](C)C(=O)O[C@H]1CCC=C2C=C[C@H](C)C(CCC3C[C@@H](O)CC(=O)O3)[C@H]21 (stereo partly specified)

[1.33, 0.441, 0.746]

----------
- ASSAY: differential killing of epithelial or mesenchymal cells, primary screen, imaging, PC-3E GFP, TEM4-18 mCherry, co-culture (AID 1345086);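 note: normalised mesenchymal count divided by normalised epithelial count so high means epithelial killing; cells exposed to compound for 72 h before imaging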
- PARTICULARS: imaging cell counts, at 1 µM, actives lie on both sides, counts scaled to control wells, 1 = unselective
Bridge positions count the residues as written; N and C are the ends. Square brackets hold non-standard residues; d marks the D form. Peptide text beside a SMILES is read from it. * marks the point of attachment. ξ: configuration not given here. ξDab(CH2SO3H) = NC(CCNCS(=O)(=O)O)C(=O)O; Heptanoyl(6-Me) = CC(C)CCCCC(=O)*; Dab = NCC[CH](N)C(=O)O
MEASURED PARAMETER: red/green cell ratio (normalised)
Answers are plain numbers.

Consider the worked cases shown below.
COMPOUND: OCc1cc(Br)ccc1Cl
ENDPOINT RESULT: 1.07
//
COMPOUND: CN1C2CC[C@@H]1CC(OC(=O)[C@H](CO)c1ccccc1)C2 (stereo partly drawn)
ENDPOINT RESULT: 0.96
//
COMPOUND: C=C1OC(=O)c2c(OC)cc(OC)c(C)c2C1C (stereo not drawn)
ENDPOINT RESULT: 1
//
COMPOUND: CC(C)(C)NC[C@@H](O)COc1nsnc1N1CCOCC1
ENDPOINT RESULT: 1.2

Below are some compounds; for each one, tell me its red/green cell ratio (normalised).
1. COC(=O)c1ccc(C(CC(C)C)NC(C)=O)o1 (stereo not drawn)
2. CCC(C)C1NC(=O)C(CCNCS(=O)(=O)O)NC(=O)C(NC(=O)C(CCNCS(=O)(=O)O)NC(=O)C(NC(=O)C(CCNCS(=O)(=O)O)NC(=O)CCCCC(C)C)C(C)O)CCNC(=O)C(C(C)O)NC(=O)C(CCNCS(=O)(=O)O)NC(=O)C(CCNCS(=O)(=O)O)NC(=O)C(C(C)CC)NC1=O (stereo not drawn) ({Heptanoyl(6-Me)}-[ξDab(CH2SO3H)]T[ξDab(CH2SO3H)][Dab][ξDab(CH2SO3H)]II[ξDab(CH2SO3H)][ξDab(CH2SO3H)]T; lactam 4-C; configuration not given here)
3. CC[C@H]1OC(=O)[C@H](C)[C@@H](O[C@H]2C[C@@](C)(OC)[C@@H](O)[C@H](C)O2)[C@H](C)[C@@H](O[C@@H]2O[C@H](C)C[C@H](N(C)C)[C@H]2O)[C@](C)(O)C[C@@H](C)[C@@H]2N[C@@H](COCCOC)O[C@H]([C@H]2C)[C@]1(C)O
4. CC(C)(C)NCC(O)COc1cccc2c1CCCC2=O (stereo not drawn)
5. CC1(C)C2CCC1(C)C(O)C2 (stereo not drawn)

1
1.41
0.74
1.02
1.2

Below are some compounds; for each one, tell me its red/green cell ratio (normalised).
1. COC1CC2CCC(C)C(O)(O2)C(=O)C(=O)N2CCCCC2C(=O)OC(C(C)CC2CCC(O)C(OC)C2)CC(=O)C(C)/C=C(\C)C(O)C(OC)C(=O)C(C)CC(C)/C=C/C=C/C=C/1C (stereo not drawn)
2. NC(N)=NCCCC(N)C(=O)O (stereo not drawn)
3. C#C[C@]1(O)CCC2C3CCc4cc(OC)ccc4C3CC[C@@]21C (stereo partly drawn)

[1.36, 0.83, 1.01]

Below are some compounds; for each one, tell me its red/green cell ratio (normalised).
1. COc1cc2oc3cc(OC)c(OC)c(CC=C(C)C)c3c(=O)c2c(OC)c1CC=C(C)C
2. Clc1ccc2ncc(Cl)nc2c1
3. CCCC(=O)Nc1ncnc2c1ncn2C1O[C@@H]2COP(=O)(O)O[C@H]2[C@H]1OC(=O)CCC (stereo partly drawn)
4. COc1ccc([C@H]2COc3c(ccc(O)c3OC)C2)c(OC)c1O
5. CC(=O)C1=C(O)C=C2Oc3c(C(N)=O)c(O)cc(O)c3[C@@]2(C)C1=O
6. CCCCC(=O)O[C@H]1CCC2C3CCc4cc(O)ccc4C3CC[C@@]21C (stereo partly drawn)

1. 0.95
2. 1.15
3. 0.94
4. 0.9
5. 1.13
6. 0.95

----------
- ASSAY: antimalarial activity against Dd2 strain (AID 2302);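 note: 0% = DMSO untreated growth and 100% = chloroquine plus artemisinin killed control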
- PARTICULARS: P. falciparum Dd2 in RBCs, LDH growth readout, 72 h; at 2 µM
Activity calls are given as the source filed them.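 Rule for the calls: active = growth inhibition above 50% at the single 2 µM test dose, taken to imply half-maximal potency below 2 µM; inactive = the rest.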
Please reply with one of these outcomes: active, inactive

Solved cases below.
COMPOUND: CS(=O)(=O)c1cccc(-c2cnc3[nH]cc(-c4cccc(CCN)c4)c3c2)c1
GROUP: active
//
COMPOUND: CCc1cn2c3c(cc(C(=O)N[C@@H](Cc4ccccc4)[C@H](O)CNC4CCOCC4)cc13)N(C)S(=O)(=O)C2
GROUP: active
//
COMPOUND: Cc1cc2c3c(N)nc(N)nc3ccc2n1C
GROUP: inactive
//
COMPOUND: Cc1nc(C)c(-c2ccc(Oc3ccc(OC(F)(F)F)cc3)cc2)c(OC(=O)c2ccccc2)c1Cl
GROUP: active
//
COMPOUND: Cc1ccc(Cc2cccc3nc(N)nc(N)c23)cc1
GROUP: inactive

Field: outcome | Entry: Cc1ccc(S(=O)(=O)Nc2ccc(Nc3nccc(Nc4cccc5[nH]ncc45)n3)cc2)cc1
inactive

Field: outcome | Entry: CC(C)c1sc(-c2ccc(C(C)(C)C)cc2)nc1C(=O)NCCCN1CCCC1=O
active

Field: outcome | Entry: CS(=O)(=O)Cc1ccc(Nc2nccc(-c3c(-c4cccc(NC(=O)C5CCCCC5)c4)nn4ncccc34)n2)cc1
active

----------
What inhibition was measured for each of the following?
- ASSAY: growth inhibition of BT084 medulloblastoma cells, cell-based, ICGC_MB145, cisplatin and BGB IC40 combos (AID 1671461);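 note: cells exposed to drugs for 96 hours; 0% = vehicle DMSO and 100% = high DMSO full killing control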
- PARTICULARS: drug combinations, at 0.5 µM, stronger effect = higher value
The source made the active and inactive calls. Rule as the data show it: active = inhibition above about 80%; inactive = the rest.

Consider the worked cases shown below.
COMPOUND: CO[C@H]1/C=C/O[C@@]2(C)Oc3c(C)c(O)c4c(O)c(c(C=NN5CCN(C)CC5)c(O)c4c3C2=O)NC(=O)/C(C)=C\C=C\[C@H](C)[C@H](O)[C@@H](C)[C@@H](O)[C@@H](C)[C@H](OC(C)=O)[C@@H]1C
inhibition: -5.85% (inactive)
//
COMPOUND: O=c1ncccn1[C@@H]1O[C@H](CO)[C@@H](O)[C@H]1O
inhibition: -5.93% (inactive)

Below are some compounds; for each one, tell me its inhibition.
1. NC(=O)c1ncn(C2OC(CO)C(O)C2O)n1 (stereo not given)
2. Cc1c(-c2cnccn2)ssc1=S
3. CCc1c2c(nc3ccc(O)cc13)-c1cc3c(c(=O)n1C2)COC(=O)[C@]3(O)CC

1. 6.99% (inactive)
2. -10.9% (inactive)
3. 5.49% (inactive)

----------
- ASSAYED SYSTEM: ATP-dependent translocase ABCB1 (Homo sapiens) (UniProt P08183)
- Sequence (P08183 whole entry, looked up): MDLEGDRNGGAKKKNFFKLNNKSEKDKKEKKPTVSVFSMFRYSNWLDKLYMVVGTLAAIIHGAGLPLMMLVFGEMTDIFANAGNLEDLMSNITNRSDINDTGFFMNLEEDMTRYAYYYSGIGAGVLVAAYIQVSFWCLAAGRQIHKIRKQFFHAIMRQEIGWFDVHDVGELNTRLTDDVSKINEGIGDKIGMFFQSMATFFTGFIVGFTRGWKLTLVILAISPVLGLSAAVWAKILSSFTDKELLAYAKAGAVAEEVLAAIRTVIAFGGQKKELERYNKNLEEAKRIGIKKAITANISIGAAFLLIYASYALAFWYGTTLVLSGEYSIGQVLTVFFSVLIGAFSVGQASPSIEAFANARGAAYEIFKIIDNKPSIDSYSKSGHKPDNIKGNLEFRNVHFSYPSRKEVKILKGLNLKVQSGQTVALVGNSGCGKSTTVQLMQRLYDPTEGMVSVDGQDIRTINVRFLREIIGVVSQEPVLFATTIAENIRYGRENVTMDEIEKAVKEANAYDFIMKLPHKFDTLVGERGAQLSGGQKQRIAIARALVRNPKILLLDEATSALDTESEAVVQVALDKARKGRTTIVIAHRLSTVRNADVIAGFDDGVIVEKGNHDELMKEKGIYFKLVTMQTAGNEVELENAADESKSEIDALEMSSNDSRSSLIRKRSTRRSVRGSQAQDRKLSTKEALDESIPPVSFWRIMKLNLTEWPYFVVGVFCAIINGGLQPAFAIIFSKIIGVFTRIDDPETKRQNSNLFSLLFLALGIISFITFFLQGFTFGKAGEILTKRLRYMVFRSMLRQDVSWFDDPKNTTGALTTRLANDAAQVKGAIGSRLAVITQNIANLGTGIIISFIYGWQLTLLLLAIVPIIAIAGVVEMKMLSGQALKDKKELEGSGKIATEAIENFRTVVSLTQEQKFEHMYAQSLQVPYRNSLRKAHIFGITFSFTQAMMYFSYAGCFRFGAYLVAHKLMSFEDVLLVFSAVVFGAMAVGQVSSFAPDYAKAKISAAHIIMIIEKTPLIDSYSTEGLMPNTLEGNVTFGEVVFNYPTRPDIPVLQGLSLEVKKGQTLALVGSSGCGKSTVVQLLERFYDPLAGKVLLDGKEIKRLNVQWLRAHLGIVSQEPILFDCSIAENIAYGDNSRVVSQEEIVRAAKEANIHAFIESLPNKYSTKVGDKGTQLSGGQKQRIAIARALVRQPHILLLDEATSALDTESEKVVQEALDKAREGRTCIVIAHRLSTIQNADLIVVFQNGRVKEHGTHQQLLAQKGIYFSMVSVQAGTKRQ
- ASSAY: MDR1 (ABCB1) efflux transporter inhibition, cell-based (AID 377)
- PARTICULARS: MDR1-expressing cells, fluorescent substrate accumulation slope; stronger effect = higher value; concentration not given here
Inconclusive results are not listed.
fluorescence slope change vs 80%: at or above is true (1), below is false (0).

Solved cases below.
COMPOUND: COc1cccc2c1C(=O)c1c(O)c3c(c(O)c1C2=O)C[C@@](O)(C(C)=O)C[C@@H]3OC1CC(N)C(O)C(C)O1 (stereo partly drawn)
GROUP: true (1)
//
COMPOUND: CCC[C@@H]1C[C@@H](C(=O)N[C@@H](C2O[C@H](SC)[C@H](O)[C@@H](O)[C@H]2O)[C@H](C)Cl)N(C)C1 (stereo partly drawn)
GROUP: true (1)
//
COMPOUND: CCN(CC)CC#CCOC(=O)C(O)(c1ccccc1)C1CCCCC1 (stereo not drawn)
GROUP: true (1)
//
COMPOUND: O=C(O)Cc1cc(I)c(Oc2ccc(O)c(I)c2)c(I)c1
GROUP: false (0)
//
COMPOUND: CN1CCc2cccc3c2[C@H]1Cc1ccc(O)c(O)c1-3
GROUP: false (0)
//
COMPOUND: CCCCC[C@H](O)/C=C/[C@H]1[C@H](O)CC(=O)[C@@H]1C/C=C\CCCC(=O)O
GROUP: false (0)
//
COMPOUND: CC(=O)SCC(Cc1ccccc1)C(=O)NCC(=O)OCc1ccccc1 (stereo not drawn)
GROUP: false (0)

Does O=C(c1ccc(OCCN2CCCCC2)cc1)c1c(-c2ccc(O)cc2)sc2cc(O)ccc12 have a reported fluorescence slope change of at least 80%?
true (1)
